Test system: EKVX NSCLC
procedureDetails: NCI tumour cell line growth inhibition, 48 h
This section presents molecules with their documented TGI values.

O=C1c2ccccc2C(=O)c2c(NCCN=Cc3ccccc3O)cccc21 : 5.44 µM
COc1ccc(N2C(=O)C(=O)N(c3ccc(N=Nc4ccccc4)cc3)C2=S)cc1 : 37 µM
CCOC(=O)C1=C(Nc2ccc(Br)cc2)OCC1=O : > 100 µM
Cc1cc(C)nc(NC(P(=O)(O)O)P(=O)(O)O)n1 : > 100 µM
O=C1C2[C@@H](C(=O)N1c1ccc(Br)cc1)C13C(=CC2([N+](=O)[O-])[C@@H]2C(=O)N(c4ccc(Br)cc4)C(=O)[C@@H]21)c1ccccc1N3c1ccccc1 (some centres not stated) : > 100 µM
CCc1nc(Cl)c(Cl)c(Cl)n1 : > 100 µM
CC1CC(Nc2ccc(Br)cc2)N(C(=O)c2ccc(Br)cc2)O1 (configuration not stated) : > 10 µM
Oc1c(Br)ccc2cccnc12 : > 66.3 µM

// TGI lookup, key: CN1CCN(/C(N)=C(\C#N)C(=O)Nc2ccc(Cl)cc2)CC1
> 100 µM
